molecular target: Epidermal growth factor receptor (Homo sapiens) (UniProt P00533); settings: at 0.1 µM
Sequence (P00533 whole entry): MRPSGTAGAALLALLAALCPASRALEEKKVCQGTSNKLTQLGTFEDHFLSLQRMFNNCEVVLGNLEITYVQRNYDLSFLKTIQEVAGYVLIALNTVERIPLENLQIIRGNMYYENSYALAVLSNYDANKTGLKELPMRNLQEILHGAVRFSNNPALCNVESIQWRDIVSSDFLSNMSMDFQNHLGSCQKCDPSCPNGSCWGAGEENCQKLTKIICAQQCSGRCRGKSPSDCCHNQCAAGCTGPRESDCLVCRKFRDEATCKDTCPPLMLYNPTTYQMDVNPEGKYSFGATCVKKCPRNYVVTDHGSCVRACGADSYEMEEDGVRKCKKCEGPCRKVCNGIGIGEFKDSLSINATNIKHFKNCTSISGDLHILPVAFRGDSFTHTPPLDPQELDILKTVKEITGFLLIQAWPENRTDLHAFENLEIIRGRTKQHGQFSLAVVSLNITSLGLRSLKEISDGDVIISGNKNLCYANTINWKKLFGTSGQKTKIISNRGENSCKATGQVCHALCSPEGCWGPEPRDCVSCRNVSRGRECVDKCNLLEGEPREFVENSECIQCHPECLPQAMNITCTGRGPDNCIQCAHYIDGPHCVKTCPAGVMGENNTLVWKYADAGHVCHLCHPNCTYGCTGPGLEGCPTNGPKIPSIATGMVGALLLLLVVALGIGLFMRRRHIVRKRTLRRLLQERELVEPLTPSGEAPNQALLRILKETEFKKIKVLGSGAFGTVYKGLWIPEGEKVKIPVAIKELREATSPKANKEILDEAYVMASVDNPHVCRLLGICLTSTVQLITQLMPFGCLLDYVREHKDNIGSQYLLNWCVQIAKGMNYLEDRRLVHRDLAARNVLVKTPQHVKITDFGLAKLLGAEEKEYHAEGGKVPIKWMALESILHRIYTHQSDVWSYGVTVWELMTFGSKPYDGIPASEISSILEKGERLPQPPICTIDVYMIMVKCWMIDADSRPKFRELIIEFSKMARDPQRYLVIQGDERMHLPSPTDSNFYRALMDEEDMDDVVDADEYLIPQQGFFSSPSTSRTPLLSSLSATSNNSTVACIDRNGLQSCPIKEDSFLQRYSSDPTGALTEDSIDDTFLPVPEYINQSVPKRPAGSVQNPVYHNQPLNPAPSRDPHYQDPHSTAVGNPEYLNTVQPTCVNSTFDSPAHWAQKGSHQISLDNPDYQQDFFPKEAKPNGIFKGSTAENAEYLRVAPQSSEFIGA
Description: GSK_PKIS: EGFR mean inhibition at 0.1 uM [Nanosyn]
Measurement Kind: inhibition (%)
Just the number please, in %, no unit attached.

Give the measured inhibition of CN(C)CCCn1c(-c2nonc2N)nc2cnccc21 . 9.72

Give the measured inhibition of COc1ccc2ncnc(Nc3ccc(OCc4ccccc4)cc3)c2c1 . 62.7

Give the measured inhibition of NS(=O)(=O)c1cccc(-c2cc3ccncc3cc2OCc2ccccc2)c1 . -0.75

Give the measured inhibition of Oc1cccc(-c2nc(-c3ccccc3)[nH]c2-c2ccncc2)c1 . 2.76

Give the measured inhibition of CCn1c(-c2nonc2N)nc2ccc(F)cc21 . 12.1

Give the measured inhibition of COC(=O)c1cncc(/C=C/c2c(C)cc(O)cc2C)c1 . 0.29

Give the measured inhibition of CN1CCN(C(=O)c2ccc(NC(=O)Nc3ccc(N(C)c4ccnc(Nc5ccc(CS(C)(=O)=O)cc5)n4)cc3)cc2)CC1 . 4.52

Give the measured inhibition of C[C@@H](Oc1cc(-n2cnc3ccc(OC[C@@H](O)CO)cc32)sc1C(N)=O)c1ccccc1Cl . -0.06

Give the measured inhibition of NC(=O)c1sc(-n2cnc3ccccc32)cc1OCc1ccccc1Br . 1.88

Give the measured inhibition of COc1ccc(-c2nn3ncccc3c2-c2ccnc(Nc3cccc(C(F)(F)F)c3)n2)cc1 . 9.51

Give the measured inhibition of Cc1ccc(O)cc1Nc1ccnc2ccc(S(C)(=O)=O)cc12 . 12.7

Give the measured inhibition of COc1cccc(-n2ncc3c(N/N=C/c4ccc(C)cc4)ncnc32)c1 . 3.01

Give the measured inhibition of CS(=O)(=O)CCNCc1nc(-c2ccc3ncnc(Nc4ccc(OCc5cccc(C(F)(F)F)c5)cc4)c3c2)cs1 . 14.6

Give the measured inhibition of COC(=O)Nc1nc2cc(Oc3ccc(NC(=O)Nc4cccc(Br)c4)cc3)ccc2[nH]1 . 1.74

Give the measured inhibition of Cc1nc(-c2ccccc2)n2nc(NCCCN3CCOCC3)ncc12 . 5.65

Give the measured inhibition of O=C1Nc2ccccc2/C1=C/Nc1ccc2[nH]c(=O)[nH]c2c1 . 4.63

Give the measured inhibition of COc1cc(/C=N/Nc2ncnc3c2cnn3C(C)C)ccc1O . 6.39

Give the measured inhibition of COc1cccc(-n2ncc3c(N/N=C/c4ccc(S(C)(=O)=O)cc4)ncnc32)c1 . 6.5

Give the measured inhibition of N#Cc1cccc(Nc2nccc(-c3cnn4ncccc34)n2)c1 . 1.1

Give the measured inhibition of ON=C1CCc2cc(-c3nc(C4CCNCC4)[nH]c3-c3ccncc3)ccc21 . 0.23

Give the measured inhibition of CCn1c(-c2nonc2N)nc2c(C#CC(C)(C)O)nc(OCCNC)cc21 . 0.82

Give the measured inhibition of NS(=O)(=O)c1ccc(Nc2cc(-c3cccc(O)c3)n[nH]2)cc1 . 0.67

----------
biological target: NT-3 growth factor receptor (Homo sapiens) (UniProt Q16288); settings: at 1 µM;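 also: mean TRKC inhibition from the GSK PKIS kinase inhibitor set, with assays run by Nanosyn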
Sequence (Q16288 32-839 limits assumed): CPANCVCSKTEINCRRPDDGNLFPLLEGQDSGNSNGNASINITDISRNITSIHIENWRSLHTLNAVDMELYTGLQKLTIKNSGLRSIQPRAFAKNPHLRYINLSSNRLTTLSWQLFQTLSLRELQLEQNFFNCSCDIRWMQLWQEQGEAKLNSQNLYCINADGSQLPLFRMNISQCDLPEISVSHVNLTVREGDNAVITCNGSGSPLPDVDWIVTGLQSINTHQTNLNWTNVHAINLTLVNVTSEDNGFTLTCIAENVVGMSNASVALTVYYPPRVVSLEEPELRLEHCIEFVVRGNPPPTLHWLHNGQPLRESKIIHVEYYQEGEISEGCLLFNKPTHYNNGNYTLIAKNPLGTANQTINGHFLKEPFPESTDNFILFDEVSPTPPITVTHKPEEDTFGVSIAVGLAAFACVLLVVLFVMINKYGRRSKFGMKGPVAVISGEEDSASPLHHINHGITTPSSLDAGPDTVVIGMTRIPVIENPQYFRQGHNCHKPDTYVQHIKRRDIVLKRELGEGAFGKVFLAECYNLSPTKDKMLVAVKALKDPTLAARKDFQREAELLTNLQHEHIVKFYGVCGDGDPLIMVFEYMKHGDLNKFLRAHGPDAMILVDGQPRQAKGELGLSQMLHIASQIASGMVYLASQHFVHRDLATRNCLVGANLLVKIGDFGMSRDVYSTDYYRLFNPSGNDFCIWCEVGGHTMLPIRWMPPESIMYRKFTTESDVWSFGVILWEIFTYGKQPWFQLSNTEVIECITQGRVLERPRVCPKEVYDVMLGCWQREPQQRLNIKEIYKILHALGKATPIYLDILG
Measurement Kind: inhibition
Could you give the number and then its unit, please?

Give the measured inhibition of CCOc1nccc2c1nc(-c1nonc1N)n2CC . 5.16%

Give the measured inhibition of C[C@@H](Oc1cc(-n2cnc3ccc(OC[C@@H](O)CO)cc32)sc1C(N)=O)c1ccccc1Cl . 29.4%

Give the measured inhibition of NS(=O)(=O)c1ccc(-c2cc3ccncc3cc2OCc2ccccc2)cc1 . 5.04%

Give the measured inhibition of Cc1ccc2c(-c3ccnc(Nc4ccc5c(c4)OCCO5)n3)c(-c3ccc(C(F)(F)F)cc3)nn2n1 . -0.97%

Give the measured inhibition of FC(F)(F)c1ccc(-c2nn3ncccc3c2-c2ccnc(Nc3ccc4c(c3)OCCO4)n2)cc1 . 4.32%

Give the measured inhibition of Nc1nccc(-c2c(-c3ccc(F)cc3)nn3cc(C(F)(F)F)ccc23)n1 . 1.1%

Give the measured inhibition of COc1cc2ncnc(Nc3ccc(C)c(O)c3)c2cc1OC . 7.05%

Give the measured inhibition of Cc1cc(-c2ccccn2)cc(C)c1/C=C/c1cncc(-c2nn[nH]n2)c1 . 2.54%

Give the measured inhibition of NC(=O)c1sc(-n2cnc3ccccc32)cc1OCc1ccccc1Br . 3.41%

Give the measured inhibition of Cc1ccc2c(-c3ccnc(Nc4cccc(C(F)(F)F)c4)n3)c(-c3ccccc3)nn2n1 . 5.05%

Give the measured inhibition of NS(=O)(=O)c1ccc(Nc2cc(-c3cccc(O)c3)n[nH]2)cc1 . 14.4%

Give the measured inhibition of COc1cc(/C=N/Nc2ncnc3c2cnn3C(C)C)ccc1O . 29.1%

Give the measured inhibition of Nc1nccc(C#Cc2cncnc2Nc2ccc(OCc3cccc(F)c3)c(Cl)c2)n1 . 9.94%

Give the measured inhibition of O=S(=O)(CCOCc1ccc(-c2ccc3ncnc(Nc4ccc(OCc5cccc(F)c5)c(Cl)c4)c3c2)o1)c1ccccc1 . 0.31%

Give the measured inhibition of COc1cc(Nc2nccc(-c3cnn4ncccc34)n2)cc(OC)c1 . 45.6%

Give the measured inhibition of NS(=O)(=O)c1ccc(N/N=C2\C(=O)Nc3ccc(Cl)cc32)cc1 . 42.3%

Give the measured inhibition of Cc1cc(O)cc(C)c1/C=C/c1cncc(C(=O)N(C)C)c1 . 1.59%

Give the measured inhibition of COC(=O)Nc1nc2cc(Oc3ccc(NC(=O)Nc4cccc(Br)c4)cc3)ccc2[nH]1 . 38.8%

Give the measured inhibition of CN1CCN(C(=O)c2ccc(NC(=O)Nc3ccc(N(C)c4ccnc(Nc5ccc(CS(C)(=O)=O)cc5)n4)cc3)cc2)CC1 . 36.9%

Give the measured inhibition of CCCN1CCCC(c2ccc(Nc3nc(Nc4cc(F)ccc4C(N)=O)c4cc[nH]c4n3)c(OC)c2)C1 (stereo not given) . 5.51%

----------
biological target: Serine/threonine-protein kinase BRSK2 (Homo sapiens) (UniProt Q8IWQ3); settings: at 0.1 µM;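 also: values are mean inhibition of BRSK2 from the GSK PKIS screening dataset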
Sequence (Q8IWQ3 whole entry): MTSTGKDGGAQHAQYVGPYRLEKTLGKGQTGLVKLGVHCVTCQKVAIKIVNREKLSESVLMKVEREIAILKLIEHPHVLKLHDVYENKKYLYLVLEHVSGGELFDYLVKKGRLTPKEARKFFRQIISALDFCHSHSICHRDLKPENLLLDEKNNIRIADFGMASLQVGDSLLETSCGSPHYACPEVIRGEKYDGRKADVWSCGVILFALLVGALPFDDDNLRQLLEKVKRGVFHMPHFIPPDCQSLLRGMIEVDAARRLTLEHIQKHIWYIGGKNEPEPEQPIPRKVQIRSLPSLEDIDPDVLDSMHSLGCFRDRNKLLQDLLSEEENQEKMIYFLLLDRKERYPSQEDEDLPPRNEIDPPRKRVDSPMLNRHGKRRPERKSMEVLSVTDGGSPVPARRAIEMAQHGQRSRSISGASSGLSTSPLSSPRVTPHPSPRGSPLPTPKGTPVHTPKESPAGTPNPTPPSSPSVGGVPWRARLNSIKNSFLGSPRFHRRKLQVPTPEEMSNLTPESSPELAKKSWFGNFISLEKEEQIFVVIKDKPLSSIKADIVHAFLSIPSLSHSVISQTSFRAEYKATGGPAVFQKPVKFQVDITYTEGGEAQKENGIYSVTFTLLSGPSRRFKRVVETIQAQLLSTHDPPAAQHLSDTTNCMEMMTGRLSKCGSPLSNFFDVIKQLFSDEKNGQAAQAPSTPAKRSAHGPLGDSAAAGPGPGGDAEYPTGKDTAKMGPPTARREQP
Measurement Kind: inhibition

Give the measured inhibition of COc1cc(/C=N/Nc2ncnc3c2cnn3C(C)C)ccc1O . 1.52%

Give the measured inhibition of NC(=O)c1sc(-n2cnc3ccccc32)cc1OCc1ccccc1Br . 3.06%

Give the measured inhibition of NS(=O)(=O)c1cccc(-c2cc3ccncc3cc2OCc2ccccc2)c1 . 2.26%

Give the measured inhibition of Nc1ccc(C#Cc2cncnc2Nc2ccc(OCc3cccc(F)c3)c(Cl)c2)cc1 . 1.82%

Give the measured inhibition of Cc1cc(-c2ccccn2)cc(C)c1/C=C/c1cncc(-c2nn[nH]n2)c1 . 1.67%

Give the measured inhibition of c1ccc(Cc2nc3ccc(Nc4ncnc5ccccc45)cc3[nH]2)cc1 . 1.93%

----------
molecular target: Macrophage colony-stimulating factor 1 receptor (Homo sapiens); conditions: at 0.1 µM;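 also: value reported is the mean inhibition of FMS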
Could you please report measured inhibition for the items listed next?
Just the number please, in %, no unit attached.

Please tell me: inhibition of Cc1ccc(NC(=O)CC2CC2)cc1-c1ccc(C(=O)NCC2CC2)cc1 , system Macrophage colony-stimulating factor 1 receptor (Homo sapiens)? 2.08

Please tell me: inhibition of ON=C1CCc2cc(-c3nc(C4CCNCC4)[nH]c3-c3ccncc3)ccc21 , system Macrophage colony-stimulating factor 1 receptor (Homo sapiens)? 2.19

Please tell me: inhibition of CS(=O)(=O)Nc1cccc(-c2ccc3c(NC(=O)C4CC4)n[nH]c3c2)c1 , system Macrophage colony-stimulating factor 1 receptor (Homo sapiens)? -0.21

Please tell me: inhibition of CN(C)CCCn1c(-c2nonc2N)nc2cnccc21 , system Macrophage colony-stimulating factor 1 receptor (Homo sapiens)? 2.34

Please tell me: inhibition of CC(C)c1ccc2c(c1)NC(=O)/C2=N/Nc1ccc(S(N)(=O)=O)cc1 , system Macrophage colony-stimulating factor 1 receptor (Homo sapiens)? 5.18

Please tell me: inhibition of CCn1c(-c2nonc2N)nc2ccc(F)cc21 , system Macrophage colony-stimulating factor 1 receptor (Homo sapiens)? 1.29

Please tell me: inhibition of CN1CCN(C(=O)c2ccc(NC(=O)Nc3ccc(N(C)c4ccnc(Nc5ccc(CS(C)(=O)=O)cc5)n4)cc3)cc2)CC1 , system Macrophage colony-stimulating factor 1 receptor (Homo sapiens)? 87.7

Please tell me: inhibition of CN(C)c1cc2c(Nc3ccc4c(cnn4Cc4ccccc4)c3)ncnc2cn1 , system Macrophage colony-stimulating factor 1 receptor (Homo sapiens)? 1.36

Please tell me: inhibition of Cc1cc(-c2ccccn2)cc(C)c1/C=C/c1cncc(-c2nn[nH]n2)c1 , system Macrophage colony-stimulating factor 1 receptor (Homo sapiens)? 1.45

Please tell me: inhibition of N#Cc1cccc(Nc2nccc(-c3cnn4ncccc34)n2)c1 , system Macrophage colony-stimulating factor 1 receptor (Homo sapiens)? 34.4

----------
molecular target: Rho-associated protein kinase 2 (Homo sapiens); conditions: at 1 µM
Description: GSK_PKIS: ROCK2 mean inhibition at 1 uM [Nanosyn]
Would you mind labelling by inhibition? At or over 3% is Yes, under is No.

Reported inhibition reaches at least 3% for Cc1ccc2c(-c3ccnc(Nc4cccc(C(F)(F)F)c4)n3)c(-c3ccccc3)nn2n1 ? Yes

Reported inhibition reaches at least 3% for COc1cccc(-n2ncc3c(N/N=C/c4ccc(S(C)(=O)=O)cc4)ncnc32)c1 ? No

Reported inhibition reaches at least 3% for O=C(Nc1ccc(Oc2ccc3[nH]c(NC(=O)c4ccco4)nc3c2)cc1)Nc1cc(C(F)(F)F)ccc1F ? Yes

Reported inhibition reaches at least 3% for NC(=O)c1cccc(Nc2nccc(Nc3cccc(F)c3)n2)c1 ? No

Reported inhibition reaches at least 3% for CCS(=O)(=O)c1ccc(OC)c(Nc2ncc(-c3cccc(OC)c3)o2)c1 ? No
